assay: NCI Yeast Anticancer Drug Screen. Data for the mec2-1 strain (AID 157); details: S. cerevisiae mec2-1 strain, at 50.0 µM, stronger effect = higher value
This is part of a sample that, as a whole, favours compounds with a hit. Of some 79,000 tested, about 15% had one in any assay.
The entries below are paired with their reported growth inhibition.
Write it as a number; the unit % goes unstated.

The examples below pair each entry with its known result.
| compound | readout_unit | growth inhibition |
| --- | --- | --- |
| Nc1ccc(N=Nc2ccccc2)c(N)c1 | % | 19.6 |
| Cc1cc2c(cc1Cl)SC(NNC(=O)c1ccccc1)=NS2(=O)=O | % | -31.7 |
| CC(O)C(N=Cc1nc(-c2ccccc2)oc1O)C(=O)O (configuration not stated) | % | -6.55 |
| CCCc1sc(NC(C)=O)nc1-c1ccccc1 | % | 5.85 |
| COc1cc2c(cc1O)CN1Cc3cc(O)c(OC)cc3C2C1 | % | 2.35 |
| N#Cc1c(F)cccc1N1CCSCC1 | % | -17.8 |

I would be grateful if you could share the reported growth inhibition for COC(=O)c1ccc(Cl)nc1 . -8.6

Entry Cc1ccccc1N=Nc1c(O)n(-c2ccccc2)c(=S)n(-c2ccccc2)c1=O please 0.9

Entry CCCNCCCCC(C)Nc1cc(OC)cc2cccnc12 (configuration not stated) please -14.8

Entry O=S1c2ccc(Cl)cc2CC(SSC2Cc3cc(Cl)ccc3S(=O)c3ccccc32)c2ccccc21 (configuration not stated) please -35.6

Entry CC(NC(=O)C(C)NC(=O)C(N)CCP(C)(=O)O)C(=O)O (configuration not stated) please -15

Entry Nc1nc2nn(-c3ccc(C(=O)NC(CCC(=O)O)C(=O)O)cc3)nc2c(=O)[nH]1 (configuration not stated) please 2.75
